B1: ADAMTS4 (parent)
chain: HVDPEEPWSPCSARFITDFLDNGY

Variants of: B1
Test: protein stability index of a GFP-peptide fusion (GPS, HEK-293T) (PSI 1-6); higher = more stable;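 further: lentivirally expressed fusions sorted by FACS into six bins by GFP to DsRed ratio, PSI derived from sequencing read proportions per bin multiplied by bin number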
Settings: c terminus: a fixed tail appended
Decide by protein stability index: equal to or exceeding 2 means 1.0, less means 0.0.

   variant_key  assigned_class
0          E6Q             1.0
1         T17W             0.0
2          V2I             1.0

Q) Does the variant `F15E` have recorded protein stability index that is 2 or more?
A) 1.0

Q) Assess whether reported protein stability index for `D3K` sits at 2 or higher.
A) 0.0

Hello, the source for this data is the supplement of paper PMC10567573, in case you need it.
